# Test system: Escherichia coli
# ASSAY INFO: MIC, agar dilution, Escherichia coli
# Format: cell-based
# REPORTED CONDITIONS: Escherichia coli; strain UC6720; read-out: MIC
MEASURE: MIC (µg/mL)

# MOLECULE, VALUE UNITS, NUMERIC READOUT
records = [
    ("CO/N=C(\\C(=O)N[C@@H]1C(=O)N2C(C(=O)O)=C(CO)CS[C@H]12)c1csc(N)n1 [desacetyl cefotoxime, reference compound]", "µg/mL", 0.25),
    ("CO/N=C(\\C(=O)N[C@@H]1C(=O)N2C(C(=O)O)=C(CSSCC3=C(C(=O)O)N4C(=O)[C@@H](NC(=O)/C(=N\\OC)c5csc(N)n5)[C@H]4SC3)CS[C@H]12)c1csc(N)n1 [Example 5]", "µg/mL", 2),
    ("CO/N=C(\\C(=O)N[C@@H]1C(=O)N2C(C(=O)O)=C(CSSc3ccc(Cl)cc3)CS[C@H]12)c1csc(N)n1 [Example 17]", "µg/mL", 4),
    ("CO/N=C(\\C(=O)N[C@@H]1C(=O)N2C(C(=O)O)=C(CSSCc3ccccc3)CS[C@H]12)c1csc(N)n1 [Example 14]", "µg/mL", 16),
    ("CO/N=C(\\C(=O)N[C@@H]1C(=O)N2C(C(=O)O)=C(CSSC)CS[C@H]12)c1csc(N)n1 [Example 9]", "µg/mL", 1),
]

A = CO/N=C(\C(=O)N[C@@H]1C(=O)N2C(C(=O)O)=C(CSSc3ccccc3)CS[C@H]12)c1csc(N)n1 [Example 15]
B = CCC(C)SSCC1=C(C(=O)O)N2C(=O)[C@@H](NC(=O)/C(=N\OC)c3csc(N)n3)[C@H]2SC1 (some centres unmarked) [Example 13]
Hi there, can you help? I need to know whether A or B has lower measured MIC. Response format: the label of the selected entry. A
(A: 8 µg/mL, B: 16 µg/mL)

###

# System: Streptococcus agalactiae
# ASSAY INFO: MIC, agar dilution, Streptococcus agalactiae
# Assay type: cell-based
# REPORTED CONDITIONS: Streptococcus agalactiae; strain UC6892; read-out: MIC
MEASURE: MIC

# COMPOUND, MIC
records = [
    ("CO/N=C(\\C(=O)N[C@@H]1C(=O)N2C(C(=O)O)=C(CSSc3ccc([N+](=O)[O-])cc3)CS[C@H]12)c1csc(N)n1 [Example 18]", "≤ 0.06 µg/mL"),
    ("CO/N=C(\\C(=O)N[C@@H]1C(=O)N2C(C(=O)O)=C(CS)CS[C@H]12)c1csc(N)n1 [Formula III compound]", "≤ 0.06 µg/mL"),
    ("CO/N=C(\\C(=O)N[C@@H]1C(=O)N2C(C(=O)O)=C(CSSC3CCCCC3)CS[C@H]12)c1csc(N)n1 [Example 19]", "≤ 0.06 µg/mL"),
]

Form field: reported MIC of CO/N=C(\C(=O)N[C@@H]1C(=O)N2C(C(=O)O)=C(CO)CS[C@H]12)c1csc(N)n1 [desacetyl cefotoxime, reference compound] ≤ 0.06 µg/mL

Record request: MIC value, item CCC(C)SSCC1=C(C(=O)O)N2C(=O)[C@@H](NC(=O)/C(=N\OC)c3csc(N)n3)[C@H]2SC1 (stereo partly drawn) [Example 13] > 32 µg/mL

I would be grateful if you could share the reported MIC for CO/N=C(\C(=O)N[C@@H]1C(=O)N2C(C(=O)O)=C(CSSc3ccccc3)CS[C@H]12)c1csc(N)n1 [Example 15] . ≤ 0.06 µg/mL

What does the data say about its MIC? Entry: CCCSSCC1=C(C(=O)O)N2C(=O)[C@@H](NC(=O)/C(=N\OC)c3csc(N)n3)[C@H]2SC1 [Example 11] > 32 µg/mL

###

# Test system: Salmonella typhimurium
# ASSAY INFO: MIC, agar dilution, Salmonella typhimurium
# Format: cell-based
# REPORTED CONDITIONS: Salmonella enterica, TYPHIMURIUM / UC6162; strain UC6162; read-out: MIC
MEASURE: MIC (µg/mL)

Example molecules with recorded MIC:
# MOLECULE, MIC, µg/mL
records = [
    ("CO/N=C(\\C(=O)N[C@@H]1C(=O)N2C(C(=O)O)=C(CS)CS[C@H]12)c1csc(N)n1", 0.5),
    ("CO/N=C(\\C(=O)N[C@@H]1C(=O)N2C(C(=O)O)=C(CSSCc3ccccc3)CS[C@H]12)c1csc(N)n1", 16),
]

1 = CO/N=C(\C(=O)N[C@@H]1C(=O)N2C(C(=O)O)=C(CSC(=O)c3ccco3)CS[C@H]12)c1csc(N)n1 [ceftiofur, reference compound]
2 = CO/N=C(\C(=O)N[C@@H]1C(=O)N2C(C(=O)O)=C(CSSC)CS[C@H]12)c1csc(N)n1
3 = CO/N=C(\C(=O)N[C@@H]1C(=O)N2C(C(=O)O)=C(CSSCC3=C(C(=O)O)N4C(=O)[C@@H](NC(=O)/C(=N\OC)c5csc(N)n5)[C@H]4SC3)CS[C@H]12)c1csc(N)n1
4 = CO/N=C(\C(=O)N[C@@H]1C(=O)N2C(C(=O)O)=C(CSSCc3ccco3)CS[C@H]12)c1csc(N)n1
5 = CO/N=C(\C(=O)N[C@@H]1C(=O)N2C(C(=O)O)=C(CSSc3ccc(Cl)cc3)CS[C@H]12)c1csc(N)n1
Could you please order the items by MIC, going from the lowest number to the highest? Answer by listing the labels in the order asked for. 1, 2, 3, 5, 4

1 = CO/N=C(\C(=O)N[C@@H]1C(=O)N2C(C(=O)O)=C(CSSc3ccc([N+](=O)[O-])cc3)CS[C@H]12)c1csc(N)n1
2 = CCC(C)SSCC1=C(C(=O)O)N2C(=O)[C@@H](NC(=O)/C(=N\OC)c3csc(N)n3)[C@H]2SC1 (stereo partly drawn)
3 = CO/N=C(\C(=O)N[C@@H]1C(=O)N2C(C(=O)O)=C(CSCC(N)=O)CS[C@H]12)c1csc(N)n1
Order the records, beginning with the lowest MIC and ending with the highest. Respond with the label ranking, as requested. 3, 1, 2

###

Examples of molecules with documented MIC follow.
# System: Salmonella choleraesuis
# ASSAY INFO: MIC, agar dilution, Salmonella choleraesuis
# Type: cell-based
# REPORTED CONDITIONS: Salmonella enterica, CHOLERAESUIS / UC6077; strain UC6077; read-out: MIC
Give the value in µg/mL but do not write µg/mL after it.

# MOLECULE, SYSTEM, VALUE UNITS, NUMERIC READOUT
rows = [
    ("CO/N=C(\\C(=O)N[C@@H]1C(=O)N2C(C(=O)O)=C(CSSc3ccccc3)CS[C@H]12)c1csc(N)n1 [Example 15]", "Salmonella choleraesuis", "µg/mL", 32),
]

Dear colleague, I am looking for the recorded MIC of the following molecule: CO/N=C(\C(=O)N[C@@H]1C(=O)N2C(C(=O)O)=C(CSCC(N)=O)CS[C@H]12)c1csc(N)n1 [Example 7] 2

For the molecule shown here, CO/N=C(\C(=O)N[C@@H]1C(=O)N2C(C(=O)O)=C(CSC(=O)c3ccco3)CS[C@H]12)c1csc(N)n1 [ceftiofur, reference compound] , give the reported MIC. 2

Which MIC value is on record for CO/N=C(\C(=O)N[C@@H]1C(=O)N2C(C(=O)O)=C(CO)CS[C@H]12)c1csc(N)n1 [desacetyl cefotoxime, reference compound] ? 1

Find the recorded MIC belonging to CO/N=C(\C(=O)N[C@@H]1C(=O)N2C(C(=O)O)=C(CS)CS[C@H]12)c1csc(N)n1 [Formula III compound] and report it. 1

// query MIC value for entry CO/N=C(\C(=O)N[C@@H]1C(=O)N2C(C(=O)O)=C(CSSCc3ccccc3)CS[C@H]12)c1csc(N)n1 [Example 14] 32

###

# Test system: Micrococcus luteus
# ASSAY INFO: MIC, agar dilution, Micrococcus luteus
# Format: cell-based
# REPORTED CONDITIONS: Micrococcus luteus; strain UC130; read-out: MIC
MEASURE: MIC

# MOLECULE, MIC
measured = [
    ("CO/N=C(\\C(=O)N[C@@H]1C(=O)N2C(C(=O)O)=C(CSSc3ccccc3)CS[C@H]12)c1csc(N)n1", "≤ 0.06 µg/mL"),
    ("CO/N=C(\\C(=O)N[C@@H]1C(=O)N2C(C(=O)O)=C(CSSC3CCCCC3)CS[C@H]12)c1csc(N)n1", "≤ 0.06 µg/mL"),
]

What value of MIC has been recorded for this entry: `CO/N=C(\C(=O)N[C@@H]1C(=O)N2C(C(=O)O)=C(CSSCc3ccco3)CS[C@H]12)c1csc(N)n1` ≤ 0.06 µg/mL

Given `CO/N=C(\C(=O)N[C@@H]1C(=O)N2C(C(=O)O)=C(CSSCc3ccccc3)CS[C@H]12)c1csc(N)n1` , state its recorded MIC. ≤ 0.06 µg/mL

Returns the measured MIC for the input molecule. Input: `CO/N=C(\C(=O)N[C@@H]1C(=O)N2C(C(=O)O)=C(CSSc3ccc(Cl)cc3)CS[C@H]12)c1csc(N)n1` ≤ 0.06 µg/mL

Measured values drawn from patent US5134137A for this set.
